# TEST_SUMMARY: Cmax in Sprague-Dawley rat at 5 mg/kg, po
# Assay type: ADME, organism-based
# Parameters: dose 5 mg/kg, route oral
# CONDITION_NOTES: in vivo
PARAMETER: Cmax (ng/mL)

NC(=O)c1cccc2[nH]c(-c3ccc([C@@H]4CCCN4)cc3F)nc12 300
NC(=O)c1cccc2[nH]c(-c3ccc([C@@H]4CCCCN4)cc3F)nc12 200

====

# TEST_SUMMARY: Clearance in cynomolgus monkey
# Format: ADME, organism-based, Macaca fascicularis
# CONDITION_NOTES: in vivo
PARAMETER: clearance (mL/min/kg)

NC(=O)c1cccc2[nH]c(-c3ccc([C@@H]4CCCCN4)cc3F)nc12 36.7
NC(=O)c1cccc2[nH]c(-c3ccc([C@@H]4CCCN4)cc3F)nc12 68.3
